# Assay Target: human mGlu5a receptor (Homo sapiens)
# Construct: expressed in transfected cells
# Experiment Summary: Intracellular Ca2+ mobilization assay (mGlu5 PAM)
# Type: cell-based
# Setup Conditions: HEK293, maximal response in % of the maximal stimulatory effect obtained with saturating concentrations of L-glutamate; HEK-293 human mGlu5a cells; read-out: Eff. (%)
Measure: Emax (%)

Below, each entry is followed by its recorded Emax result.
> print(dat)
                                   molecule  measured
1  CN(C(=O)c1ncc(C#Cc2cccc(F)c2)cn1)C1(C(F)(F)F)CC1 [Example 44]        68
2  CN(C(=O)c1ccc(C#Cc2ccc(F)c(F)c2)cn1)C1(C)COC1 [Example 30]        50
3  CC1(C)CN(C(=O)c2ncc(C#Cc3ccccc3)cn2)CCC1O (racemic) [Example 48]        55

I = CC(N(C)C(=O)c1ncc(C#Cc2ccccc2)cc1F)C(F)(F)F (racemic) [Example 51]
II = CC1(C)CN(C(=O)c2ccc(C#Cc3ccc(F)cc3)cn2)CCC1O (racemic) [Example 40]
Between I and II , whose measured Emax reads higher? // output: label of the selected item I
(I: 69%, II: 37%)

###

# Assay Target: human mGlu5a receptor (Homo sapiens, UniProt P41594)
# Construct: expressed in transfected cells
# Sequence (P41594 21-1180 isoform P41594-2 limits assumed): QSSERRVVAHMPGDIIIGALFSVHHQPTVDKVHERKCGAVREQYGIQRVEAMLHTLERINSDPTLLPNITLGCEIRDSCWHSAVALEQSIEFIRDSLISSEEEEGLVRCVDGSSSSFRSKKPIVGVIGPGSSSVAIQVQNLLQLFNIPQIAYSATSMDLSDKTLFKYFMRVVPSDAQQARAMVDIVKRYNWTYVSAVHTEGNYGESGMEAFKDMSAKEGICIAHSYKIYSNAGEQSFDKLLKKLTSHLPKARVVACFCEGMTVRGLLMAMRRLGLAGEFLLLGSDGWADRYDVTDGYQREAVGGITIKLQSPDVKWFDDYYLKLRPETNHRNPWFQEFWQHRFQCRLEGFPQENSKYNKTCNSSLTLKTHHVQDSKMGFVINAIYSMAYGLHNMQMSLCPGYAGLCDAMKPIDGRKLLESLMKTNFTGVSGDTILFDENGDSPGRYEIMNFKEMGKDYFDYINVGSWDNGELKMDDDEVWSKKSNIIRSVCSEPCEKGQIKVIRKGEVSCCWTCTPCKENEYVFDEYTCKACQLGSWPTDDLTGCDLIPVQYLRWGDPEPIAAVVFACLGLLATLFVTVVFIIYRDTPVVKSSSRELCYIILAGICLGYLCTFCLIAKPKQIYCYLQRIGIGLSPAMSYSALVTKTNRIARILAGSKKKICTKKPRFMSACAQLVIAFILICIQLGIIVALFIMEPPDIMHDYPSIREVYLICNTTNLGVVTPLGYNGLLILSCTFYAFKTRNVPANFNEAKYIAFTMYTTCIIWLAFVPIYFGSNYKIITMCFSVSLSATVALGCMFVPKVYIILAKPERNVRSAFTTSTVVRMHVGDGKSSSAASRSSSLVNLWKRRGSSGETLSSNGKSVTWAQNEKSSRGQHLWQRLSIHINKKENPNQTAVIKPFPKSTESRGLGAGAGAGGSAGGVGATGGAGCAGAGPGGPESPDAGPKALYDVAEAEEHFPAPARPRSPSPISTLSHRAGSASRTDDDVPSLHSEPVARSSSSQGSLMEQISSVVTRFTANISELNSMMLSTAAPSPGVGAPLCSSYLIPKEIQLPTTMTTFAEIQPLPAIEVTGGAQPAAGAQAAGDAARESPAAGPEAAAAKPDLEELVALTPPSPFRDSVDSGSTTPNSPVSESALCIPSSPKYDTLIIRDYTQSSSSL
# Experiment Summary: Intracellular Ca2+ mobilization assay (mGlu5 PAM)
# Type: cell-based
# Setup Conditions: HEK-293 cells stably transfected with human mGlu5a receptor; L-glutamate added at EC20 (typically around 80 μM) after 10-30 min pre-incubation with test compound; read-out: EC50 (nM) mGlu5PAM
Measure: EC50 (nM)

> print(dat)
                                   compound  measure  measured
1  Cc1cccc(C#Cc2ccc(C(=O)N(C)C3(C(F)(F)F)CC3)nc2)c1 [Example 34]     EC50        27
2  CN(C(=O)c1ncc(C#Cc2cccc(F)c2)cn1)C(C)(C)C [Example 12]     EC50        23
3  CC1(C)CN(C(=O)c2ccc(C#Cc3cc(F)ccc3F)cn2)CCO1 [Example 36]     EC50        56

P = Cc1cccc(C#Cc2cnc(C(=O)NC(C)(C)C)nc2)c1 [Example 13]
Q = CN(C(=O)c1ncc(C#Cc2ccccc2)cc1F)C1(C)COC1 [Example 50]
// compare: P vs Q , metric EC50, want the smaller // output: label of the selected item Q

###

# Assay Target: human mGlu5a receptor (Homo sapiens, UniProt P41594)
# Construct: expressed in transfected cells
# Experiment Summary: Intracellular Ca2+ mobilization assay (mGlu5 PAM)
# Type: cell-based
# Setup Conditions: HEK293, maximal response in % of the maximal stimulatory effect obtained with saturating concentrations of L-glutamate; HEK-293 human mGlu5a cells; read-out: Eff. (%)
Measure: Emax (%)

Below, each entry is followed by its recorded Emax result.
> print(dat)
                                   compound  measured
1  CC1(C)CC(O)CCN1C(=O)c1ccc(C#Cc2cccc(F)c2)cn1 (racemic)        45
2  CN(C(=O)c1ncc(C#Cc2cccc(F)c2)cn1)C(C)(C)C        55
3      O=C(NC1COC1)c1ccc(C#Cc2cccc(F)c2)cn1        80
4       CC(C)(C)NC(=O)c1ccc(C#Cc2ccccc2)cn1       115

a = CC(N(C)C(=O)c1ccc(C#Cc2cccc(Cl)c2)cn1)C(F)(F)F (racemic)
b = CN(C(=O)c1ccc(C#Cc2cccc(F)c2)cn1)C1CCC1
c = CC(C)(C)NC(=O)c1ncc(C#Cc2ccc(F)cc2)cn1
Put the entries in order of Emax, starting with the largest number. In plain terms: list the labels in the order you were asked to. c, b, a

A = O=C(c1ncc(C#Cc2ccccc2)cn1)N1CC(F)(F)C1
B = CN(C(=O)c1ccc(C#Cc2ccc(F)cc2)cn1)C(C)(C)C
// compare: A vs B , metric Emax, want the smaller // output: label of the selected item A

P = CC1(C)CN(C(=O)c2ccc(C#Cc3cccc(F)c3)cn2)CCC1O (racemic)
Q = Cc1cc(C#Cc2ccc(F)cc2)cnc1C(=O)N(C)C(C)(C)C
Between P and Q , whose measured Emax reads higher? // output: label of the selected item Q

###

# Assay Target: human mGlu5a receptor (Homo sapiens, UniProt P41594)
# Construct: expressed in transfected cells
# Experiment Summary: Intracellular Ca2+ mobilization assay (mGlu5 PAM)
# Format: cell-based
# Setup Conditions: HEK-293 cells stably transfected with human mGlu5a receptor; L-glutamate added at EC20 (typically around 80 μM) after 10-30 min pre-incubation with test compound; read-out: EC50 (nM) mGlu5PAM
Measure: EC50 (nM)

> print(dat)
                                   compound  measured
1  O=C(NC1COC1)c1ccc(C#Cc2cccc(F)c2)cn1 [Example 26]        43
2  CN(C(=O)c1ccc(C#Cc2cccc(F)c2)cn1)C1(C)COC1 [Example 27]        24
3  O=C(c1ncc(C#Cc2ccccc2)cn1)N1CC(F)(F)C1 [Example 45]        62
4  CN(C(=O)c1ccc(C#Cc2cncc(Cl)c2)cn1)C(C)(C)C [Example 7]        17

A = CN(C(=O)c1ccc(C#Cc2cncc(Cl)c2)cn1)C1(C(F)(F)F)CC1 [Example 53]
B = CC1(C)CN(C(=O)c2ccc(C#Cc3ccc(F)cc3)cn2)CCC1O (racemic) [Example 40]
Between A and B , whose measured EC50 reads higher? // output: label of the selected item B
(B: 93 nM, A: 44 nM)

###

# Assay Target: human mGlu5a receptor (Homo sapiens)
# Construct: expressed in transfected cells
# Experiment Summary: Intracellular Ca2+ mobilization assay (mGlu5 PAM)
# Type: cell-based
# Setup Conditions: HEK-293 cells stably transfected with human mGlu5a receptor; L-glutamate added at EC20 (typically around 80 μM) after 10-30 min pre-incubation with test compound; read-out: EC50 (nM) mGlu5PAM
Measure: EC50 (nM)

I = CN(C(=O)c1ncc(C#Cc2ccc(F)cc2)cc1F)C(C)(C)C [Example 22]
II = CC1(C)CC(O)CCN1C(=O)c1ncc(C#Cc2cccc(F)c2)cc1F (racemic) [Example 67]
III = CN(C(=O)c1ccc(C#Cc2cc(F)ccc2F)cn1)C1(C)COC1 [Example 29]
IV = CN(C(=O)c1ccc(C#Cc2cc(F)ccc2F)cn1)C(C)(C)C [Example 5]
V = Cc1cc(C#Cc2cncc(Cl)c2)cnc1C(=O)N(C)C(C)(C)C [Example 20]
Rank by decreasing EC50 the items listed here. In plain terms: list the labels in the order you were asked to. V, II, I, III, IV

1 = CN(C(=O)c1ccc(C#Cc2cccc(Cl)c2)cn1)C1(C(F)(F)F)CC1 [Example 33]
2 = CN(C(=O)c1ccc(C#Cc2ccc(F)cc2)cn1)C(C)(C)C [Example 4]
3 = CC1(C)CC(O)CCN1C(=O)c1ncc(C#Cc2cccc(F)c2)cn1 (racemic) [Example 65]
4 = CN(C(=O)c1ncc(C#Cc2cc(F)ccc2F)cc1F)C(C)(C)C [Example 23]
5 = CC(NC(=O)c1ccc(C#Cc2ccnc(Cl)c2)cn1)C(F)(F)F (single isomer, unassigned) [Example 60]
Arrange items by their EC50 values in increasing order. In plain terms: list the labels in the order you were asked to. 4, 2, 1, 5, 3

1 = Cc1cc(C#Cc2cccc(F)c2)cnc1C(=O)N(C)C(C)(C)C [Example 17]
2 = CC(N(C)C(=O)c1ccc(C#Cc2cccc(Cl)c2)cn1)C(F)(F)F (racemic) [Example 62]
Between 1 and 2 , whose measured EC50 reads higher? // output: label of the selected item 1
(1: 37 nM, 2: 25 nM)

A = CN(C(=O)c1ncc(C#Cc2ccccc2)cc1Cl)C(C)(C)C [Example 43]
B = CN(C(=O)c1ccc(C#Cc2cccc(F)c2)cn1)C1(C)CC1 [Example 31]
// compare: A vs B , metric EC50, want the smaller // output: label of the selected item B

###

# Assay Target: human mGlu5a receptor (Homo sapiens)
# Construct: expressed in transfected cells
# Experiment Summary: Intracellular Ca2+ mobilization assay (mGlu5 PAM)
# Type: cell-based
# Setup Conditions: HEK293, maximal response in % of the maximal stimulatory effect obtained with saturating concentrations of L-glutamate; HEK-293 human mGlu5a cells; read-out: Eff. (%)
Measure: Emax (%)

> print(dat)
                                   molecule                          assay.target  endpoint.unit  measured
1  CN(C(=O)c1ccc(C#Cc2cc(F)ccc2F)cn1)C1(C)COC1 [Example 29]  human mGlu5a receptor (Homo sapiens)              %        45
2  CC1(C)CC(O)CCN1C(=O)c1ncc(C#Cc2cc(F)ccc2F)cn1 (racemic) [Example 66]  human mGlu5a receptor (Homo sapiens)              %        49
3  CC(NC(=O)c1ccc(C#Cc2ccnc(Cl)c2)cn1)C(F)(F)F (single isomer, unassigned) [Example 59]  human mGlu5a receptor (Homo sapiens)              %        47
4  CC1(C)CC(O)CCN1C(=O)c1ncc(C#Cc2ccccc2)cn1 (racemic) [Example 47]  human mGlu5a receptor (Homo sapiens)              %        57
5  CC1(C)CC(O)CCN1C(=O)c1ncc(C#Cc2cccc(F)c2)cc1F (racemic) [Example 67]  human mGlu5a receptor (Homo sapiens)              %        57
6  CC1(C)CN(C(=O)c2ccc(C#Cc3cccc(F)c3)cn2)CCO1 [Example 35]  human mGlu5a receptor (Homo sapiens)              %        57
